Every entry's value here was drawn from patent US4162311A.

RUN_DESCRIPTION: acute toxicity / tolerance dose
DETAILS: mouse, in vivo; mice; read-out: DMT (tolerance dose)
PARAMETER: MTD (mg/kg)
One number for each entry, in mg/kg.

Give the measured MTD of NNC(=O)CP(=O)(c1ccccc1)c1ccccc1 .
200
